# Test system: ATP;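 note: ATP exposure 15 min at 22 °C before imaging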
# Experimental details: switch fluorescence ratio, 500 uM ATP over buffer (Cy3 cluster intensity, sum of 5 cycles each) (fold (ratio)); higher = stronger signal-on switching upon ATP binding; sequences stand for … in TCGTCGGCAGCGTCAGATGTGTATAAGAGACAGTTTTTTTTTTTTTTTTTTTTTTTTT…TC
# Run conditions: aptamer strand: ATP DNA aptamer (quencher-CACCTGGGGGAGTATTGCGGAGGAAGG + anchor), 100 nM annealed; ATP concentration: 500 uM

- Sequence data: "CTGGGTCGGG"
  switch fluorescence ratio: 0.992
- Sequence data: "TCCCGGTAGT"
  switch fluorescence ratio: 1.01
- Sequence data: "TTTTTAGCGT"
  switch fluorescence ratio: 0.995
- Sequence data: "GTTTTATGCT"
  switch fluorescence ratio: 1.01
- Sequence data: "TTTTGTTGTA"
  switch fluorescence ratio: 0.996
- Sequence data: "CATTGCAGTG"
  switch fluorescence ratio: 1.03
- Sequence data: "ACAGACTTTG"
  switch fluorescence ratio: 1.01
- Sequence data: "TTTTTTTTGT"
  switch fluorescence ratio: 1
- Sequence data: "GACAGGGGGA"
  switch fluorescence ratio: 1.03
- Sequence data: "CTGGCGCGGG"
  switch fluorescence ratio: 1.02

* * *

# Test system: ATP;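 note: ATP exposure 15 min at 22 °C before imaging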
# Experimental details: switch fluorescence ratio, 500 uM ATP over buffer (Cy3 cluster intensity, sum of 5 cycles each) (fold (ratio)); higher = stronger signal-on switching upon ATP binding; sequences stand for … in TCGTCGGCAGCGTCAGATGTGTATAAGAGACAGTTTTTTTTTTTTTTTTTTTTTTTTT…TC
# Run conditions: aptamer strand: ATP DNA aptamer (quencher-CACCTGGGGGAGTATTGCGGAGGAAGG + anchor), 100 nM annealed; ATP concentration: 500 uM
Reported switch fluorescence ratio values are given for each entry in this list.
Readout name: switch fluorescence ratio

- Sequence data: "TGGGAGGGGT"
  Val: 1.01
- Sequence data: "CCGGTTAGGG"
  Val: 0.991
- Sequence data: "GTGTTCTGGA"
  Val: 1
- Sequence data: "TGGGGGGCTG"
  Val: 0.983
- Sequence data: "GTGTCAATTA"
  Val: 1.01
- Sequence data: "GGACGAGGTG"
  Val: 0.976
- Sequence data: "TTTGCTTTTG"
  Val: 0.988
- Sequence data: "ACAAAGACCT"
  Val: 1.42
- Sequence data: "GATGGTTGTG"
  Val: 0.95
- Sequence data: "TAATTGTTAT"
  Val: 0.986
- Sequence data: "GGGTCCATGG"
  Val: 0.985
- Sequence data: "CTTAGAGCGG"
  Val: 1.01
- Sequence data: "TGGTCGCCGT"
  Val: 0.978

* * *

# Tested on: ATP;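 note: ATP exposure 15 min at 22 °C before imaging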
# Experimental details: switch fluorescence ratio, 500 uM ATP over buffer (Cy3 cluster intensity, sum of 5 cycles each) (fold (ratio)); higher = stronger signal-on switching upon ATP binding; sequences stand for … in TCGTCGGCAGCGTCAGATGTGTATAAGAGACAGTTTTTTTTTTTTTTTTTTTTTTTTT…TC
# Run conditions: aptamer strand: ATP DNA aptamer (quencher-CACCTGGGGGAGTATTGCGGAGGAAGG + anchor), 100 nM annealed; ATP concentration: 500 uM
Threshold rule: switch fluorescence ratio greater than or equal to 1 is Condition met; below that, Condition not met.

- Sequence data: "TTTTGAGACT"
  Qualitative label: "Condition not met"
- Sequence data: "TTGGCTTCAT"
  Qualitative label: "Condition not met"
- Sequence data: "CCCTCGCGGT"
  Qualitative label: "Condition met"
- Sequence data: "TTACTATGAA"
  Qualitative label: "Condition met"
- Sequence data: "TGGGGAACTT"
  Qualitative label: "Condition met"
- Sequence data: "TCGGGGGCAC"
  Qualitative label: "Condition met"
- Sequence data: "ATCAAAGCGC"
  Qualitative label: "Condition met"
- Sequence data: "AGGCGGCTGA"
  Qualitative label: "Condition met"
- Sequence data: "TAAATGGGTG"
  Qualitative label: "Condition met"
- Sequence data: "GTGTTATTGC"
  Qualitative label: "Condition not met"
